// provenance: the supplement of paper PMC13380429

Measured cell viability of individual entries
- Tested on: HepG2
- PROTOCOL SUMMARY: cell viability relative to DMSO; higher = less toxic
- EXPERIMENTAL PARAMETERS: 72 h; 10 nM
VALUE KIND: cell viability (%)

INSERT INTO results (molecule, units_of_measure, experimental_value) VALUES
  ('NC(=O)c1ncn([C@@H]2O[C@H](CO)[C@@H](O)[C@H]2O)c1N', '%', 96.1),
  ('Cc1cccc(C)c1NC(=O)c1ccc(N)cc1 [ameltolide]', '%', 89.3),
  ('CC(C)[C@]12O[C@H]1[C@@H]1O[C@]13[C@]1(O[C@H]1C[C@H]1C4=C(CC[C@@]13C)C(=O)OC4)[C@@H]2O [triptolide]', '%', 30),
  ('FC(F)(F)c1cccc(-c2noc(-c3cc(-c4ccccc4)c(C(F)(F)F)s3)n2)c1', '%', 103);
